System: wild-type Salmonella (ASD200) live cells
assayName: Live-cell growth assay, concentration-response (IC50/IC90) of the top 8 purchased compounds
Type: cell-based, Salmonella enterica serovar Typhimurium
conditionContext: 17 h, read-out: IC50 with live cells, value (95% CI), concentration that inhibits growth to 50%
endpoint: pIC50
Bear in mind: pIC50 is minus log10 of a mol/L concentration; give just that figure.

Given the molecule CCOc1ccc(N2C(=O)NC(=O)/C(=C/c3cc(Cl)c(O)c(OC)c3)C2=O)cc1 , what is its reported pIC50?
4.00

###

studyTarget: recombinant FraB (Salmonella enterica subsp. enterica serovar Typhimurium, UniProt Q8ZLD0)
Sequence (Q8ZLD0 1-325): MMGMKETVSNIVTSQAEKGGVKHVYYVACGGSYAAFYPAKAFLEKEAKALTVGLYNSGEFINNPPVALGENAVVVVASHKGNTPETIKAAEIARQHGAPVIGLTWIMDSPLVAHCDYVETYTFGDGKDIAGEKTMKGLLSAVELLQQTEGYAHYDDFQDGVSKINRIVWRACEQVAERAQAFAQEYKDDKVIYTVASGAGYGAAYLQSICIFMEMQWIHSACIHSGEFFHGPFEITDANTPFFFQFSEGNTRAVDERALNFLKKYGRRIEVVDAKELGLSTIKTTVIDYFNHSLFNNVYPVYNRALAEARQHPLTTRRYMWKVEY
conditionContext: read-out: IC50 with recombinant FraB (mean ± SE)
# pIC50 listing for each entry below
Bear in mind: pIC50 is minus log10 of a mol/L concentration; give just that figure.

Fill in the recorded pIC50 for this compound, with recombinant FraB (Salmonella enterica subsp. enterica serovar Typhimurium, UniProt Q8ZLD0) as test system: O=c1c(=NO)c(=O)c2ccccc12
3.88

Fill in the recorded pIC50 for this compound, with recombinant FraB (Salmonella enterica subsp. enterica serovar Typhimurium, UniProt Q8ZLD0) as test system: Nc1cc(C(=O)O)ccc1Nc1ccccc1
3.94

Fill in the recorded pIC50 for this compound, with recombinant FraB (Salmonella enterica subsp. enterica serovar Typhimurium, UniProt Q8ZLD0) as test system: c1ccc([B-]2(c3ccccc3)[NH2+]CCO2)cc1
4.46

###

Test system: fraB mutants of Salmonella
assayName: Growth inhibition (intoxication) of fraB mutants by F-Asn
Assay type: cell-based
conditionContext: new gram-scale preparations of F-Asn
endpoint: IC50

Fill in the recorded IC50 for this compound, with fraB mutants of Salmonella as test system: NC(=O)C[C@H](NCC(=O)[C@@H](O)[C@H](O)[C@H](O)CO)C(=O)O [F-Asn, fructose-asparagine]
~30 µM

###

studyTarget: recombinant FraB (Salmonella enterica subsp. enterica serovar Typhimurium)
conditionContext: read-out: Ki′ with FraB (mean ± SD)
endpoint: Ki (µM)
Report only the number, with the unit µM understood.

Use the examples below as a reference point.
Given the molecule Nc1cc(C(=O)O)ccc1Nc1ccccc1 , what is its reported Ki?
116

Given the molecule O=c1c(=NO)c(=O)c2ccccc12 , what is its reported Ki?
26

Let us examine a further case.
Given the molecule c1ccc([B-]2(c3ccccc3)[NH2+]CCO2)cc1 , what is its reported Ki?
27

###

studyTarget: recombinant FraB (Salmonella enterica subsp. enterica serovar Typhimurium, UniProt Q8ZLD0)
conditionContext: read-out: IC50 with recombinant FraB (mean ± SE)
pIC50: −log10 of the molar value.
# pIC50 listing for each entry below

Use the examples below as a reference point.
Given the molecule O=C(O)/C=C/Sc1ccccc1 , what is its reported pIC50?
< 3.00

Given the molecule C/C(=N\O)C(=O)c1ccc(Cl)cc1 , what is its reported pIC50?
< 3.00

Let us examine a further case.
Given the molecule COc1ccc2[nH]c(SC)nc2c1 , what is its reported pIC50?
< 3.00

These entries and their values trace back to paper PMC10100877.
